Reference for the values: the supplement of paper PMC12667976

B1: library; numbered along this chain (parent)
chain: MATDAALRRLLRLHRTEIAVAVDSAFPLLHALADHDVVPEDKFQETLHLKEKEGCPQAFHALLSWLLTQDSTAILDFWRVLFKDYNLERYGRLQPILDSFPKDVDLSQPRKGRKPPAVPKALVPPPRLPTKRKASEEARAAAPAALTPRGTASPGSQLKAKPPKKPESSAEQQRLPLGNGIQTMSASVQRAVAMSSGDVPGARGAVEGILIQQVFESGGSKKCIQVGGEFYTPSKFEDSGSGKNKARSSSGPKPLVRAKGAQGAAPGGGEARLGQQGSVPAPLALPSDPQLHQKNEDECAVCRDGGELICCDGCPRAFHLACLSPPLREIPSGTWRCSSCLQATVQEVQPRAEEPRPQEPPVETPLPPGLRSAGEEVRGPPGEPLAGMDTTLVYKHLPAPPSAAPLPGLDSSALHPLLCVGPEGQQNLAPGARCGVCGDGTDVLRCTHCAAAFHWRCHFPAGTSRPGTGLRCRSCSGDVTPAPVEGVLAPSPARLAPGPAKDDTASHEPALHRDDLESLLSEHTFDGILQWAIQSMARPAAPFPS

# Variants of: B1
# ASSAY_NAME: AIRE transcriptional activation functional score (insulin promoter-GFP; nonsense median 0, synonymous median 1) (normalised score); higher = higher AIRE activity (more reporter activation)
# SETUP_CONDITIONS: with insulin promoter-GFP reporter in HEK293
AIRE transcriptional activation functional score: recorded values
ENDPOINT: AIRE transcriptional activation functional score

- VARIANT: "G208C"
  RESULT_VALUE: 0.43
- VARIANT: "D442V"
  RESULT_VALUE: -0.000931
- VARIANT: "H396T"
  RESULT_VALUE: 0.549
- VARIANT: "S339I"
  RESULT_VALUE: 0.884
- VARIANT: "G219D"
  RESULT_VALUE: 0.836
- VARIANT: "W78F"
  RESULT_VALUE: 0.409
- VARIANT: "T3N"
  RESULT_VALUE: 0.808
- VARIANT: "L63Q"
  RESULT_VALUE: -0.326
- VARIANT: "A450R"
  RESULT_VALUE: 1.4
- VARIANT: "C446F"
  RESULT_VALUE: 0.403
- VARIANT: "P39T"
  RESULT_VALUE: 1.25
- VARIANT: "E237C"
  RESULT_VALUE: 1.16
- VARIANT: "T468A"
  RESULT_VALUE: 1.03
- VARIANT: "A265V"
  RESULT_VALUE: 1.11
- VARIANT: "D98N"
  RESULT_VALUE: 0.841
- VARIANT: "E517Y"
  RESULT_VALUE: 0.524
